Collected set of Ki measured with 5-hydroxytryptamine receptor 1A (Homo sapiens, UniProt P08908) across studies.
Sequence (P08908 whole entry): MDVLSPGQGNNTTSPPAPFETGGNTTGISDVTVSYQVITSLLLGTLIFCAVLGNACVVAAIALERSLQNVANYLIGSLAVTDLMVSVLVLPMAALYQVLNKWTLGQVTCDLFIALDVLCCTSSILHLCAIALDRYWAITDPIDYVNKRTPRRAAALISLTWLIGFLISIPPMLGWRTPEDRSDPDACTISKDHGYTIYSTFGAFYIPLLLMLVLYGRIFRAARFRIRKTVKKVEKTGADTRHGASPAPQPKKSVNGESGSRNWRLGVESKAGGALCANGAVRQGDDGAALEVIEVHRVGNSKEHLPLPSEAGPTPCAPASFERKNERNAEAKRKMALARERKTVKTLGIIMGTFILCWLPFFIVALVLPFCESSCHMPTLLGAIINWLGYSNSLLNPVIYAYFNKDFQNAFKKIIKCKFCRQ
PARAMETER_MEASURED: Ki (nM)

Solved entries:
[
  {
    "COMPOUND": "COc1ccccc1N1CCN(C[C@H]2OCCO[C@@H]2c2ccccc2)CC1 (relative stereo)",
    "MEASUREMENT_TARGET": "5-hydroxytryptamine receptor 1A (Homo sapiens, UniProt P08908)",
    "PARAMETER_MEASURED": "Ki",
    "OBSERVED": 214
  },
  {
    "COMPOUND": "COc1ccc(N2CCN(CCCCn3ncc(=O)n(C)c3=O)CC2)c(C#N)c1",
    "MEASUREMENT_TARGET": "5-hydroxytryptamine receptor 1A (Homo sapiens, UniProt P08908)",
    "PARAMETER_MEASURED": "Ki",
    "OBSERVED": 215
  },
  {
    "COMPOUND": "CN1CCC(n2ncc3ccc(NC(=O)c4ccc(F)cc4)cc32)CC1",
    "MEASUREMENT_TARGET": "5-hydroxytryptamine receptor 1A (Homo sapiens, UniProt P08908)",
    "PARAMETER_MEASURED": "Ki",
    "OBSERVED": 310
  },
  {
    "COMPOUND": "COc1ccccc1N1CCN(CCC(O)c2cc(C)sc2C)CC1 (centres undefined)",
    "MEASUREMENT_TARGET": "5-hydroxytryptamine receptor 1A (Homo sapiens, UniProt P08908)",
    "PARAMETER_MEASURED": "Ki",
    "OBSERVED": 12
  },
  {
    "COMPOUND": "O=C1Cc2ccccc2N1CCCCCN1CC[C@H]2CCCC[C@@H]2C1 (racemic)",
    "MEASUREMENT_TARGET": "5-hydroxytryptamine receptor 1A (Homo sapiens, UniProt P08908)",
    "PARAMETER_MEASURED": "Ki",
    "OBSERVED": 491
  }
]

A = Fc1ccc2c(C3CCN(CCCOc4ccc(CN5CCOCC5)cc4F)CC3)noc2c1
B = Cc1ccc(C)c(N2CCN(CC(O)CN3C(=O)NC(C)(c4ccc(F)cc4)C3=O)CC2)c1 (centres undefined)
C = Cc1cccc(C2CN(CCCc3cn(CCCN4CCN(c5nsc6ccccc56)CC4)nn3)CCc3cc(O)c(O)cc32)c1 (racemic)
D = Cc1ccc(Oc2ncccc2C2CCNCC2)c(F)c1
Q: Rank the items in ascending order with respect to Ki. Please write the labels in the order that was asked for.
Result: D, A, C, B
